Each record here notes measured IC50.
Target: full-length human PKCι (Homo sapiens)
Construct: Recombinant, full-length human PKCι expressed in Sf21 insect cells is also commercially available
Sequence (P41743 1-596): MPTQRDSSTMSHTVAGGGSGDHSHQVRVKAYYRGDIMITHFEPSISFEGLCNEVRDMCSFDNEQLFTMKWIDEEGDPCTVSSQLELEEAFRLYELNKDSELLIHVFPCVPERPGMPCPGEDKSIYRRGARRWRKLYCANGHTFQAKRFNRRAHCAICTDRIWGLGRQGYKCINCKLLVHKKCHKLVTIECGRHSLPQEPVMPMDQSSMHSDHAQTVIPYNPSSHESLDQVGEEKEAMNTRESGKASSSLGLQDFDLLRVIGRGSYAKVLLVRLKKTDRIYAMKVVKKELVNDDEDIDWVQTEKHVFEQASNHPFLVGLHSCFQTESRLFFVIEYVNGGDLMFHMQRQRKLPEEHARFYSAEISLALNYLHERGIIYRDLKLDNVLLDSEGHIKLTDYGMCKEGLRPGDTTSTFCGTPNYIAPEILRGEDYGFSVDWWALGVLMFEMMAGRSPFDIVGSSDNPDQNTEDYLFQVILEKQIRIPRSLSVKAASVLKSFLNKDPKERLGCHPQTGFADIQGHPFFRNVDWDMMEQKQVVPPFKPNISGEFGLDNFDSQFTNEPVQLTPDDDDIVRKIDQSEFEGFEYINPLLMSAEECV
Assay: PKCι IC50 IMAP assay, full-length PKCι at 150 μM ATP
Conditions: read-out: IC50 in IMAP assay against full length PKCi at 150 μM ATP

[
  {
    "COMPOUND": "c1ccc(C[C@H]2CN(c3nc(N4CCOCC4)nc4cncc(C5CC5)c34)CCN2)cc1",
    "MEASURED TARGET": "full-length human PKCι (Homo sapiens)",
    "IC50": "< 100 nM"
  },
  {
    "COMPOUND": "COc1cncc2nc(-c3ccnc(Nc4ccccc4F)c3)nc(N3CCNCC3)c12",
    "MEASURED TARGET": "full-length human PKCι (Homo sapiens)",
    "IC50": "< 100 nM"
  },
  {
    "COMPOUND": "C[C@@H](Nc1cc(-c2nc(N3CCNCC3)c3c(C4CC4)cncc3n2)ccn1)c1ccccc1F",
    "MEASURED TARGET": "full-length human PKCι (Homo sapiens)",
    "IC50": "< 100 nM"
  },
  {
    "COMPOUND": "NC(=O)c1cc(F)c(Nc2cc(-c3nc(N4CCNCC4)c4c(C5CC5)cncc4n3)ccn2)c(F)c1",
    "MEASURED TARGET": "full-length human PKCι (Homo sapiens)",
    "IC50": "1000 to 10000 nM"
  },
  {
    "COMPOUND": "CS(=O)(=O)C[C@H]1CN(c2nc(-c3ccnc(Nc4ccc(F)cc4)c3)nc3cncc(C4CC4)c23)CCN1",
    "MEASURED TARGET": "full-length human PKCι (Homo sapiens)",
    "IC50": "1000 to 10000 nM"
  },
  {
    "COMPOUND": "c1cc2c(N[C@@H]3CCNC3)nc(-c3ccnc(Nc4ccc(N5CCOCC5)nc4)c3)nc2cn1",
    "MEASURED TARGET": "full-length human PKCι (Homo sapiens)",
    "IC50": "< 100 nM"
  },
  {
    "COMPOUND": "c1cc(-c2nc(N3CCNCC3)c3c(C4CC4)cncc3n2)cc(NC2CCCC2)n1",
    "MEASURED TARGET": "full-length human PKCι (Homo sapiens)",
    "IC50": "< 100 nM"
  },
  {
    "COMPOUND": "Fc1ccnc(Nc2cc(-c3nc(N4CCNCC4)c4c(C5CC5)cncc4n3)ccn2)c1",
    "MEASURED TARGET": "full-length human PKCι (Homo sapiens)",
    "IC50": "< 100 nM"
  },
  {
    "COMPOUND": "Fc1cnc2[nH]ccc2c1-c1nc(N2CCNCC2)c2c(C3CC3)cncc2n1",
    "MEASURED TARGET": "full-length human PKCι (Homo sapiens)",
    "IC50": "< 100 nM"
  },
  {
    "COMPOUND": "COc1cncc2nc(-c3ccnc(NC(=O)CN4CCCCC4)c3)nc(N3CCNCC3)c12",
    "MEASURED TARGET": "full-length human PKCι (Homo sapiens)",
    "IC50": "100 to 1000 nM"
  },
  {
    "COMPOUND": "Fc1ccn2nc(Nc3cc(-c4nc(N5CCNCC5)c5c(C6CC6)cncc5n4)ccn3)nc2c1",
    "MEASURED TARGET": "full-length human PKCι (Homo sapiens)",
    "IC50": "< 100 nM"
  },
  {
    "COMPOUND": "Fc1ncccc1Nc1cc(-c2nc(N3CCNCC3)c3c(C4CC4)cncc3n2)ccn1",
    "MEASURED TARGET": "full-length human PKCι (Homo sapiens)",
    "IC50": "< 100 nM"
  },
  {
    "COMPOUND": "C[C@@H](Nc1cc(-c2nc(N3CCNCC3)c3c(C4CC4)cncc3n2)ccn1)c1ccccc1",
    "MEASURED TARGET": "full-length human PKCι (Homo sapiens)",
    "IC50": "< 100 nM"
  },
  {
    "COMPOUND": "O=C(C1CCN(c2nc(-c3ccnc(Nc4c(F)cccc4F)c3)nc3cncc(C4CC4)c23)CC1)N1CCNCC1",
    "MEASURED TARGET": "full-length human PKCι (Homo sapiens)",
    "IC50": "100 to 1000 nM"
  },
  {
    "COMPOUND": "CC(C)c1cncc2nc(-c3ccnc4[nH]ccc34)nc(N3CCNCC3)c12",
    "MEASURED TARGET": "full-length human PKCι (Homo sapiens)",
    "IC50": "< 100 nM"
  },
  {
    "COMPOUND": "CNc1nc(-c2ccnc(Nc3cccc(N4CCNCC4)c3)c2)nc2cncc(OC)c12",
    "MEASURED TARGET": "full-length human PKCι (Homo sapiens)",
    "IC50": "100 to 1000 nM"
  },
  {
    "COMPOUND": "CCP(=O)(CC)c1ccc(Nc2cc(-c3nc(N4CCNCC4)c4c(C5CC5)cncc4n3)ccn2)cc1",
    "MEASURED TARGET": "full-length human PKCι (Homo sapiens)",
    "IC50": "< 100 nM"
  },
  {
    "COMPOUND": "CN(C)CCN(C)c1nc(-c2ccnc(Nc3c(F)cccc3F)c2)nc2cncc(C3CC3)c12",
    "MEASURED TARGET": "full-length human PKCι (Homo sapiens)",
    "IC50": "100 to 1000 nM"
  },
  {
    "COMPOUND": "Fc1cnc2[nH]c(C(F)(F)F)cc2c1-c1nc(N2CCNCC2)c2c(C3CC3)cncc2n1",
    "MEASURED TARGET": "full-length human PKCι (Homo sapiens)",
    "IC50": "< 100 nM"
  },
  {
    "COMPOUND": "FC(F)(F)c1ccnc(Nc2cc(-c3nc(N[C@@H]4CCNC4)c4ccncc4n3)ccn2)c1",
    "MEASURED TARGET": "full-length human PKCι (Homo sapiens)",
    "IC50": "< 100 nM"
  },
  {
    "COMPOUND": "CS(=O)(=O)N[C@H](CNc1nc(-c2ccncc2)nc2cnccc12)Cc1ccccc1",
    "MEASURED TARGET": "full-length human PKCι (Homo sapiens)",
    "IC50": "10000 to 40000 nM"
  },
  {
    "COMPOUND": "FC(F)(F)CC1CN(c2nc(-c3ccnc(Cl)c3)nc3cncc(C4CC4)c23)CCN1 (centres unmarked)",
    "MEASURED TARGET": "full-length human PKCι (Homo sapiens)",
    "IC50": "100 to 1000 nM"
  },
  {
    "COMPOUND": "Fc1cc(F)nc(Nc2cc(-c3nc(N4CCNCC4)c4c(C5CCC5)cncc4n3)ccn2)c1",
    "MEASURED TARGET": "full-length human PKCι (Homo sapiens)",
    "IC50": "< 100 nM"
  },
  {
    "COMPOUND": "c1cc(C2CC2)n2nc(Nc3cc(-c4nc(N5CCNCC5)c5c(C6CC6)cncc5n4)ccn3)nc2c1",
    "MEASURED TARGET": "full-length human PKCι (Homo sapiens)",
    "IC50": "< 100 nM"
  },
  {
    "COMPOUND": "OC[C@@H](O)CN1CCN(c2nc(-c3ccnc(Nc4ccccc4)c3)nc3cncc(C4CC4)c23)CC1",
    "MEASURED TARGET": "full-length human PKCι (Homo sapiens)",
    "IC50": "100 to 1000 nM"
  },
  {
    "COMPOUND": "Fc1c(-c2nc(N3CCNCC3)c3c(C4CC4)cncc3n2)ccnc1Nc1ccccc1",
    "MEASURED TARGET": "full-length human PKCι (Homo sapiens)",
    "IC50": "10000 to 40000 nM"
  },
  {
    "COMPOUND": "Fc1cnc(Nc2cc(-c3nc(N4CCNCC4)c4c(C5CC5)cncc4n3)ccn2)c(F)c1",
    "MEASURED TARGET": "full-length human PKCι (Homo sapiens)",
    "IC50": "< 100 nM"
  },
  {
    "COMPOUND": "F[C@H]1C[C@@H](Nc2cc(-c3nc(N4CCNCC4)c4c(C5CC5)cncc4n3)ccn2)C1",
    "MEASURED TARGET": "full-length human PKCι (Homo sapiens)",
    "IC50": "< 100 nM"
  },
  {
    "COMPOUND": "OC1CN(c2nc(-c3ccnc(Nc4cccc(N5CCNCC5)c4)c3)nc3cncc(C4CC4)c23)C1",
    "MEASURED TARGET": "full-length human PKCι (Homo sapiens)",
    "IC50": "< 100 nM"
  },
  {
    "COMPOUND": "Fc1cccc(F)c1Nc1cc(-c2nc(SC3CCNCC3)c3c(C4CC4)cncc3n2)ccn1",
    "MEASURED TARGET": "full-length human PKCι (Homo sapiens)",
    "IC50": "< 100 nM"
  },
  {
    "COMPOUND": "Brc1cncc2nc(N3CCOCC3)nc(N3CCNCC3)c12",
    "MEASURED TARGET": "full-length human PKCι (Homo sapiens)",
    "IC50": "100 to 1000 nM"
  },
  {
    "COMPOUND": "Fc1cccc(F)c1Nc1cc(-c2nc(N3CCNCC3)c3c(C4CC4)cnc(Cl)c3n2)ccn1",
    "MEASURED TARGET": "full-length human PKCι (Homo sapiens)",
    "IC50": "< 100 nM"
  }
]

Values compiled from patent US9914730B2.
